Test system: SKBr3 (estrogen receptor negative, Her2 over-expressing breast cancer cells)
Assay: Anti-proliferation assay (MTS/PMS, 72 h), SKBr3
Type: cell-based
Conditions: Table 6, substituted phenyl ureas; Breast Cancer; read-out: IC50 SKBr3
metric.name: IC50 (nM)
Answers are plain numbers, in nM.

> print(dat)
                                   molecule                         target.under.test  metric.name  scale.unit  readout.value
1  CC(=O)c1ccc(NC(=O)Nc2cc3ccc(OC4CCN(C)CC4)c(C)c3oc2=O)cc1 [p-COCH3]  SKBr3 (estrogen receptor negative, Her2 over-expressing breast cancer cells)         IC50          nM           1520

Kindly consider the entry below.
Check the records and state IC50 for COc1cccc(NC(=O)Nc2cc3ccc(OC4CCN(C)CC4)c(C)c3oc2=O)c1 [m-OCH3]
1150

Where these numbers come from: patent US10030006B2
